Molecular target: cynomolgus monkey ABCC1 (UniProt Q864R9 1-1531)
Sequence (Q864R9 whole entry): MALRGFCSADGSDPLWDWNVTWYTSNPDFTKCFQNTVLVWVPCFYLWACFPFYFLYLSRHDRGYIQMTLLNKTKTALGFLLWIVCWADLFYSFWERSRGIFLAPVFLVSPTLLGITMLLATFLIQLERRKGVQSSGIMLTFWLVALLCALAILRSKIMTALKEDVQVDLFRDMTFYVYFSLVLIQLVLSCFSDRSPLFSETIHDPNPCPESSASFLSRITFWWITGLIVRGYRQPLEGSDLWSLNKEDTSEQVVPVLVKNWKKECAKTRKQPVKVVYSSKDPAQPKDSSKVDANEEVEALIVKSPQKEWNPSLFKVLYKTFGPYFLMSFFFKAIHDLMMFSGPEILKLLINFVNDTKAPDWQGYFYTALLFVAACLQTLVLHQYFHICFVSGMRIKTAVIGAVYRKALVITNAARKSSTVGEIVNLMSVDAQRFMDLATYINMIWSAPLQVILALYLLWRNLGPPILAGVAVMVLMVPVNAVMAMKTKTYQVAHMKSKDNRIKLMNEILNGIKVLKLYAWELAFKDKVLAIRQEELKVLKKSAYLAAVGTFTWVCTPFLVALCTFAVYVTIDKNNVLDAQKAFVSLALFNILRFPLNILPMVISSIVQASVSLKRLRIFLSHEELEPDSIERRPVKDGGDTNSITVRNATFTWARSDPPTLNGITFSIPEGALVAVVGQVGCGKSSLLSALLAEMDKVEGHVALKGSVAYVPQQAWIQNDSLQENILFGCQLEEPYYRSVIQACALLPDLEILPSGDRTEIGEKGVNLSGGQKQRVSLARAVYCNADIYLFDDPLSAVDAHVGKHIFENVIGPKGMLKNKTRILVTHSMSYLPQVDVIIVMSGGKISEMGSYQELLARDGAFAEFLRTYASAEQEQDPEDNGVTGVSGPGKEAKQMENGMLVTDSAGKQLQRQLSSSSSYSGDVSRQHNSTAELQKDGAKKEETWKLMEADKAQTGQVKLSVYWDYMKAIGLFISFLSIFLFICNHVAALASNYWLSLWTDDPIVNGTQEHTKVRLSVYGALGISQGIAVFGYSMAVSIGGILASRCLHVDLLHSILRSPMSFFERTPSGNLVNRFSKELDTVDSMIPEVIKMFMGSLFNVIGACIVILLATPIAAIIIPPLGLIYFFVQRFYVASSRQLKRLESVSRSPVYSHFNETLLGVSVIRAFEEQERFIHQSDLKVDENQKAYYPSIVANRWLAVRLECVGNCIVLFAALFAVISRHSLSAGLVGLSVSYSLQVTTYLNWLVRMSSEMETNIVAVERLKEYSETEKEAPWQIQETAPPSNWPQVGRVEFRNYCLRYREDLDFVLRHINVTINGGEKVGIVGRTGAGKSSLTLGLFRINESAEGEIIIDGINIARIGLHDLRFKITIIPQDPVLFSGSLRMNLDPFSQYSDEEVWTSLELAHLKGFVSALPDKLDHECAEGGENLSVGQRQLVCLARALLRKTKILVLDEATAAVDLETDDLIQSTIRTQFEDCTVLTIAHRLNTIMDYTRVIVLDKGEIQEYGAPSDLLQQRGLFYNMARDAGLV
Assay: FACS titration on C6-cC1 cells; C6 cells
# Kd values compiled below
Give the value, in units of nM, as a plain number.

binder="C1.861.hu21 (antibody, V domains shown) VH: EVQLVESGGGLIQPGGSLRLSCAVSGFSLTSNGVTWVRQPPGKGLEWIAAISSGGNIYYNSAVKSRLTISRDTSKNTVYLQMNSLRAEDTAVYFCTRARGTTTAYVMDAWGQGTTVTVSS VL: DVQLTQSPSSLSASVGDRVTITCKSSQSLLYSGNQKNYLAWYQQKPGKSPKLLIYWASTRQSGVPSRFSGSGSGTDFTLTISSLQPEDVATYYCQQYYDVLMNMFGGGTKLEIK" unitstext=nM readoutnumber=11
binder="C1.773 (antibody, V domains shown) VH: EIQLAQSGPELVKPGASVKMSCKASGYSFIGYFMNWVKQSHGKSLEWIGRINPYNGDTFYNQKFKGKATLTVDKSSSTAHMELRSLTSEDSALYYCTRSGWGYDVYSFDYWGQGTLVTVSS VL: DIQMTQTPSSLSASLGDRVTISCRASQDISNYLNWYQQKPDGTVKLLIYYTSRLHSGVPSRFSGSGSGTDYSLTISNLEQEDIATYFCQQGNTLPWTFGGGTKLEIK" unitstext=nM readoutnumber=4
binder="C1.831.hu11 (antibody, V domains shown) VH: EVQLQESGPGLVKPSETLSLTCTVSGFSLTSNGVSWVRQPPGKGLEWIAAISSGGNIYYNSVLKSRLTISRDTSKNQVSLKLSSVTAADTAVYYCTRERGWNYPFITNGYYFDYWGQGTLVTVSS VL: DIQLTQSPSSLSASVGDRVTITCKAGQNINNYLAWYQQKPGKAPKLLIYNANSLQTGIPSRFSGSGSGTDYTLTISSLQPEDFATYYCQQYNSWYTFGQGTKLEIK" unitstext=nM readoutnumber=11

# next binder below
Entry C1.844.hu21 (antibody, V domains shown) VH: EVQLVESGGGLIQPGGSLRLSCAVSGFSLTSNGVIWVRQPPGKGLEWIAAISSGGNIYYNSGLKSRLTISRDTSKNTVYLQMNSLRAEDTAVYYCTRARGTTTAYVMDAWGQGTLVTVSS VL: DIVMTQSPDSLAVSLGERATINCKSSQSLLYSVNQKNYLAWYQQKPGQSPKLLIYWASTRQSGVPDRFSGSGSGTDFTLTISSLQAEDVAVYYCQQYYDTLMKMFGAGTKLELK ; Kd = 11
